observable: logP

[
  {
    "compound": "COc1ccc2cc(C(C)C(=O)Oc3ccccc3)ccc2c1 (stereo not drawn)",
    "readout.value": 5.17
  },
  {
    "compound": "Cc1ccc(CC#N)cc1",
    "readout.value": 1.67
  },
  {
    "compound": "CNC(=O)CCn1ccc(=O)c(O)c1C",
    "readout.value": -1.1
  },
  {
    "compound": "CC1=C(C(=O)O)N2C(=O)C(NC(NC(=O)c3nn(-c4ccccc4)c(=O)[nH]c3=O)c3ccc(O)cc3)C2SC1 (stereo not drawn)",
    "readout.value": 1.26
  },
  {
    "compound": "Clc1ccncc1",
    "readout.value": 1.28
  },
  {
    "compound": "NS(=O)(=O)c1cc2c(cc1Cl)N=C(Cc1ccccc1)NS2(=O)=O",
    "readout.value": 1.7
  },
  {
    "compound": "CCCCCCCO",
    "readout.value": 2.62
  },
  {
    "compound": "CCCC(=O)OCn1cc2c(=O)[nH]cnc2n1",
    "readout.value": 0.33
  },
  {
    "compound": "NC(=O)OC1c2ccccc2C2CCCCC2C1OC(N)=O (stereo not drawn)",
    "readout.value": 2.17
  },
  {
    "compound": "CCCCCCCCn1ccc(=O)c(O)c1C",
    "readout.value": 2.88
  },
  {
    "compound": "CNC12CC(O)CCC1CCc1ccccc12 (stereo not drawn)",
    "readout.value": 2.37
  },
  {
    "compound": "CCc1nc2cccc(C)n2c(=O)c1C",
    "readout.value": 1.87
  },
  {
    "compound": "NC(=S)c1ccc([N+](=O)[O-])cc1",
    "readout.value": 1.75
  }
]

---

// reported logP for each item listed

[
  {
    "molecule": "C[C@]12CCC(=O)C=C1CC[C@@H]1[C@@H]2CC[C@@]2(C)[C@H]1CC[C@]2(O)C(=O)CO",
    "logP": 3.08
  },
  {
    "molecule": "Cc1cc(O)c(N)nn1",
    "logP": -0.85
  },
  {
    "molecule": "N#Cc1ccccn1",
    "logP": 0.45
  },
  {
    "molecule": "CCCCCCn1ccc(=O)c(O)c1C",
    "logP": 1.9
  },
  {
    "molecule": "CC(CCC(=O)NCc1ccccc1)C1CCC2C3C(O)CC4CC(O)CCC4(C)C3CC(O)C12C (configuration not stated)",
    "logP": 3.54
  },
  {
    "molecule": "CCOC(=O)NC1=NCC(c2ccc(F)cc2)N1C (configuration not stated)",
    "logP": 1.9
  },
  {
    "molecule": "CCCC(=O)n1c(=O)[nH]cc(F)c1=O",
    "logP": 0.67
  }
]

---

Rule: measured logP below 2 gets T; anything equal to or greater than 2 gets F.

[
  {
    "compound": "COc1cccc2c1C(=O)c1c(O)c3c(c(O)c1C2=O)CC(O)(C(C)=O)CC3OC1CC(N(CC#N)CC(=O)O)C(O)C(C)O1 (configuration not stated)",
    "discrete.label": "T"
  },
  {
    "compound": "CCCCCCN(C)C(=O)c1cccc(Oc2ccccc2)c1",
    "discrete.label": "F"
  },
  {
    "compound": "Clc1ccc(-c2ccc(Cl)c(Cl)c2Cl)cc1Cl",
    "discrete.label": "F"
  },
  {
    "compound": "OC1CCN(Cc2cccc(COc3ccccc3)c2)CC1",
    "discrete.label": "F"
  },
  {
    "compound": "Cc1c(O)c(=O)ccn1CCC(=O)NC(C)C",
    "discrete.label": "T"
  },
  {
    "compound": "CC1OC(=O)C(C)C(O)C1C (configuration not stated)",
    "discrete.label": "T"
  },
  {
    "compound": "Cn1c(S)nnc(-c2ccc(OC(F)(F)F)c(Cl)c2)c1=O",
    "discrete.label": "F"
  },
  {
    "compound": "CCc1cc2n(c1C(=O)c1ccc(F)cc1)CCC2C(=O)O (configuration not stated)",
    "discrete.label": "F"
  },
  {
    "compound": "CCOc1cccc(-c2nnc(C)n(NC)c2=O)c1",
    "discrete.label": "T"
  },
  {
    "compound": "CCCCCCn1ccc(=O)c(O)c1CC",
    "discrete.label": "F"
  },
  {
    "compound": "O=C(O)Cc1ccc(C2CCCCC2)cc1",
    "discrete.label": "F"
  },
  {
    "compound": "CC1CCCC2C1N2CC(O)Cn1ccnc1 (configuration not stated)",
    "discrete.label": "T"
  }
]

Hello, the source for this data is the OPERA property sets (Mansouri et al. 2018), in case you need it.
